Source: patent US5360796A

# SYSTEM_NAME: TCP (1-[1-(2-thienyl)cyclohexyl]piperidine) binding
# TEST: TCP Modulation Assay
# Set-up: species or system rat
# CONDITIONS_USED: 2 nM tritiated TCP, 0.05 mM L-glutamate, rat brain SPM, pH 7.4, 25° C., 60 min; read-out: TCP Ki IC50
PROPERTY_MEASURED: Ki
Please answer in the form of a number followed by its unit of measurement.

O=C(O)c1cn2cccc(CP(=O)(O)O)c2n1: 14 µM

[ask] Recorded Ki for O=C(O)c1cn2c(CP(=O)(O)O)cccc2n1 , please?
[reply] 3.2 µM

###

# SYSTEM_NAME: NMDA receptor
# TEST: NMDA-Selective Glutamate Binding Assay (L-[3H]glutamate)
# Set-up: species or system rat
# CONDITIONS_USED: Second batch; 12.5 nM L-[3H]glutamate, synaptic plasma membranes; read-out: NMDA Receptor Binding Data, Ki IC50 Binding NMDA
PROPERTY_MEASURED: Ki (µM)
Field format: number, assumed µM, no unit text.

[ask] Recorded Ki for O=C(O)c1cn2cccc(CP(=O)(O)O)c2n1 , please?
[reply] 10.5

###

# SYSTEM_NAME: NMDA receptor
# TEST: NMDA-Selective Glutamate Binding Assay (L-[3H]glutamate)
# Set-up: species or system rat
# CONDITIONS_USED: 12.5 nM L-[3H]glutamate, synaptic plasma membranes, pH 7.4, 0-4° C., 10 min; read-out: NMDA Receptor Binding Data, Ki IC50 Binding NMDA
pKi: −log10 of the molar value. Where a name gives a salt, the structure may show the parent alone.
PROPERTY_MEASURED: pKi

Known results for compounds:
O=C(O)c1cn2ccc(CP(=O)(O)O)cc2n1: < 4.00
O=C(O)c1cn2cc(CP(=O)(O)O)ccc2n1: < 4.00
Cc1ccc(P(=O)(O)O)c2nc(C(=O)O)cn12: < 5.00
O=C(O)c1cn2c(P(=O)(O)O)cccc2n1: < 5.00

Consider the additional compound presented here.
[ask] # returns recorded pKi (system: NMDA receptor) for O=C(O)c1cn2c(C(O)P(=O)(O)O)cccc2n1 (centres unmarked) [Example 57, monohydrochloride]
[reply] 5.24

###

Entries annotated with measured Ki
# SYSTEM_NAME: NMDA receptor
# TEST: NMDA-Selective Glutamate Binding Assay (L-[3H]glutamate)
# Set-up: species or system rat
# CONDITIONS_USED: 12.5 nM L-[3H]glutamate, synaptic plasma membranes, pH 7.4, 0-4° C., 10 min; read-out: NMDA Receptor Binding Data, Ki IC50 Binding NMDA
Field format: number, assumed µM, no unit text.

O=C(O)c1cn2c(CP(=O)(O)O)cccc2n1 [Example 7]: 2.4

[ask] # returns recorded Ki (system: NMDA receptor) for O=C(O)c1cn2cccc(CP(=O)(O)O)c2n1 [Example 23]
[reply] 4.5
